Values compiled from patent US20150148311A1.

Each entry below carries its reported Number of Mice with Gallbladder Concentration < LLOQ.
assay: Compound concentration in gall bladder, LC-MS/MS, 8 h post dose; format: in vivo; details: 30 mg/kg, mice below LLOQ / mice in group

Problem: Write down Number of Mice with Gallbladder Concentration < LLOQ measured for item "CN(C[C@H](O)[C@@H](O)[C@H](O)[C@H](O)CO)C(=O)CCc1cc(Cl)c(CN2CSC[C@H]2C(=O)N2CCN(C3CC3)c3ccccc32)cc1Cl"
Result: 1/8

* * *

test: Compound plasma concentration, LC-MS/MS, 8 h post dose; format: in vivo; settings: male, C57BL/6, mouse, mice, 30 mg/kg, plasma, read-out: Mean Example Plasma Concentration
recorded-endpoint: concentration at 8 h (ng/mL)

Problem: Write down concentration at 8 h measured for item "O=C(N1CCN(C2CC2)c2ccccc21)C1(NCc2cc(Cl)cc(O)c2Cl)CC1"
Result: 2.3

Problem: Write down concentration at 8 h measured for item "CN(C[C@H](O)[C@@H](O)[C@@H](O)[C@H](O)CO)C(=O)CCCCc1cc(Cl)c(CN2CSC[C@H]2C(=O)N2CCN(C3CC3)c3ccccc32)cc1Cl"
Result: 2
